Measured values drawn from paper PMC9090415 for this set.

biological target: bacteriophage T4 DNA polymerase (Enterobacteria phage T4, UniProt P04415); construct: made in house; assay: Counter-screen against bacteriophage T4 DNA polymerase; format: biochemical; details: DRC-2; read at 10'; concentration 20
Sequence (P04415 whole entry): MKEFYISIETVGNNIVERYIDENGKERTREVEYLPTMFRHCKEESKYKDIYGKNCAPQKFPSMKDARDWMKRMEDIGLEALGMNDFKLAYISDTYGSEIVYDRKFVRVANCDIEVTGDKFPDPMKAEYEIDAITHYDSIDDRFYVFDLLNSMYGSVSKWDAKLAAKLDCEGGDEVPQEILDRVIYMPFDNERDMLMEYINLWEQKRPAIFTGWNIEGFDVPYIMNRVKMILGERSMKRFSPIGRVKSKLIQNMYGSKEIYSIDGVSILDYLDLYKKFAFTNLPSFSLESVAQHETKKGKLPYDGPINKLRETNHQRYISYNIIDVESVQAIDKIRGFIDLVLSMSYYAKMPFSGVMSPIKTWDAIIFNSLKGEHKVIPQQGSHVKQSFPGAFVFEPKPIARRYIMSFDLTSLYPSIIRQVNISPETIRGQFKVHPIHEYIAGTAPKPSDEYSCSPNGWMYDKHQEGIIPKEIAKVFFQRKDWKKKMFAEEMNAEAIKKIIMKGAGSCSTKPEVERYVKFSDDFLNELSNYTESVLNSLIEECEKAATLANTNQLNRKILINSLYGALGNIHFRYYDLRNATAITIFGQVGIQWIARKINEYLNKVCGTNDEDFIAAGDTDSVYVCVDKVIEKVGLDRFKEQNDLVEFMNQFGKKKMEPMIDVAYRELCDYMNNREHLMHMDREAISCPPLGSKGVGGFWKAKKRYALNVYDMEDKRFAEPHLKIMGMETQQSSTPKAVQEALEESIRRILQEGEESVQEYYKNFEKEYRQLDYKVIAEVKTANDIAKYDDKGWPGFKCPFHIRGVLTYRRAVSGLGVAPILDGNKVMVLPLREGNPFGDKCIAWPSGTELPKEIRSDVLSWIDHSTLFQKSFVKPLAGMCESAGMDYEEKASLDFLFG
Value type: % inhibition T4 10' 20 (%)
Value expressed in %; do not type the unit.

COc1ccc(C2CC(c3ccc(Cl)cc3Cl)Nc3nc(N)nn32)cc1OC (centres unmarked)	-2.26
CC(=O)OCC1=C(C(=O)[O-])N2C(=O)[C@@H](NC(=O)Cc3cccs3)[C@H]2SC1.[Na+]	17
Cn1nc(-c2nc(-c3ccccc3)no2)c2c1CCN(C(=O)Cc1cccs1)C2	20
Cc1cccc(-c2noc(C(=O)NNC(=O)C(Cl)(Cl)Cl)n2)c1	-8
O=C(c1ccccc1)N1CCc2c(nc3cc(-c4ccccc4)[nH]n3c2=O)C1	-20

For this compound ( `CC(=O)Nc1cc(C(=O)c2cccs2)nn(-c2ccc(Cl)cc2)c1=O` ), measured % inhibition T4 10' 20 is 1.18

For this compound ( `O=C(CCc1csc(NC(=O)Nc2ccccc2)n1)Nc1nc2ccccc2s1` ), measured % inhibition T4 10' 20 is 6.49

For this compound ( C#CC(C=CC)OC(=O)c1ccccc1C(=O)O (centres unmarked) ), measured % inhibition T4 10' 20 is 6.52
